Listed here are compounds together with their documented Stability of Plant-Derived Cannabinoid Compounds in AB White, 8° C..
assay: Stability of cannabinoid compounds and Vitamin E components in Beverage 1 (AB White) by LCMSMS; type: physicochemical; details: AB White stored at 8° C.; 420 days
ASSAY READOUT: Stability of Plant-Derived Cannabinoid Compounds in AB White, 8° C. (µg/mL)

COMPOUND | READING
CCCCCc1cc(O)c2c(c1)OC(C)(C)[C@@H]1CCC(C)=C[C@@H]21 [D9 THC, delta-9-tetrahydrocannabinol, reference compound] | 11.77
C=C(C)[C@@H]1CCC(C)=C[C@H]1c1c(O)cc(CCCCC)c(C(=O)O)c1O | 1.67
C=C(C)[C@@H]1CCC(C)=C[C@H]1c1c(O)cc(CCC)cc1O | 0.144
CCCc1cc(O)c2c(c1)OC(C)(C)[C@@H]1CCC(C)=C[C@@H]21 [THCV, delta-9-tetrahydrocannabivarin] | 3.49
CCCCCc1cc(O)c2c(c1)OC1(C)CCC3C1C2C3(C)C (stereo not shown) | 0.526
CCCCCc1cc(O)c2c(c1)OC(C)(CCC=C(C)C)C=C2 (stereo not shown) | 0.307
C=C(C)[C@@H]1CCC(C)=C[C@H]1c1c(O)cc(CCCCC)cc1O [CBD, cannabidiol, reference compound] | 27.50
